- assay_target: Bromodomain adjacent to zinc finger domain protein 2B (Homo sapiens)
- test_description: qHTS Assay for Inhibitors of BAZ2B; also: nearly all actives have a fitted effect of over 60% in size
- condition_description: AlphaScreen BAZ2B-H3K14Ac peptide displacement; series mostly up to 114 µM
The campaign covered roughly 360,000 compounds. About 16,000 (4.4%) were called active. Inconclusive results (about 9%) are left out. Calls follow the shape of the dose curve; as a rule, active = well fitted inhibition curve with a large enough effect; inconclusive = small, poorly fitted or top-dose-only effect; inactive = no such curve, though single readings can be large or run the other way. Only a selection was taken, and actives are over-represented in it overall.
Give one outcome, nothing more. List: yes (1) = active, no (0) = inactive

Solved entries (count: 3):
CCc1ccc(NC(=O)CN2C(=O)C(c3ccccc3)=NC23CCCCCC3)cc1 :: no (0)
O=C(NCCc1ccccc1)c1cnc2sc(N3CCCC3)nn2c1=O :: no (0)
O=C(CN1CCN(S(=O)(=O)c2cc(Cl)ccc2Cl)CC1)c1ccc(O)c(O)c1 :: yes (1)

Qu. Please indicate how the test categorized COc1ccc(-n2nnc(-c3nsc(NC(=O)c4ccc(C)c(C)c4)n3)c2C)cc1Cl .
Ans. no (0)

* * *

- assay_target: Bromodomain adjacent to zinc finger domain protein 2B (Homo sapiens)
- test_description: qHTS Assay for Inhibitors of BAZ2B; also: nearly all actives have a fitted effect of over 60% in size
- condition_description: AlphaScreen BAZ2B-H3K14Ac peptide displacement; series mostly up to 114 µM
The whole screen tested about 360,000 compounds, of which about 16,000 (4.4%) were called active. About 9% were inconclusive and are not listed. Calls come from the whole dose curve; as a rule, active = well fitted inhibition curve with a large enough effect; inconclusive = small, poorly fitted or top-dose-only effect; inactive = no such curve, though single readings can be large or run the other way. This is one part of a sample in which actives are shown more often than they occur.
Entry note: the call must match one of True = active, False = inactive

Some entries whose results are on file:
CCOC(=O)c1c(-c2ccc(OC)cc2)oc2ccc(OCc3ccc(C(=O)OC)cc3)cc12 :: False
Cc1ccccc1-n1c(=O)c2ccccc2n(Cc2ccc(F)cc2)c1=O :: False
COc1cccc(Cn2c(SCc3ccc(C(=O)N4CCC(C)CC4)cc3)nc3ccncc32)c1 :: True

Qu. How was COc1ccc(N=C(C)c2sc3ccccc3c2O)cc1 classified in this test?
Ans. False

Qu. Recorded test call requested for COc1ccc(C(=O)Nc2cccc(C(=O)OCc3cc(=O)n4c5c(sc4n3)CCCC5)c2)cc1
Ans. False

* * *

- assay_target: Bromodomain adjacent to zinc finger domain protein 2B (Homo sapiens)
- test_description: qHTS Assay for Inhibitors of BAZ2B; also: nearly all actives have a fitted effect of over 60% in size
- condition_description: AlphaScreen BAZ2B-H3K14Ac peptide displacement; series mostly up to 114 µM
The whole screen tested about 360,000 compounds, of which about 16,000 (4.4%) were called active. Not shown: some 9% with an inconclusive outcome. Calls follow the shape of the dose curve; as a rule, active = well fitted inhibition curve with a large enough effect; inconclusive = small, poorly fitted or top-dose-only effect; inactive = no such curve, though single readings can be large or run the other way. The full list was thinned out, with actives kept by preference.
Return exactly one item of true (1) for active, false (0) for inactive

Worked examples follow.
CN(Cc1ccccc1)c1ccc(-c2nc(-c3ccccc3)no2)cc1[N+](=O)[O-] :: false (0)
COc1ccc(NC(=O)CCCN2C(=O)CCn3nc(-c4cn(C)c5ccccc45)cc32)cc1OC :: false (0)
Nc1scc[n+]1Cc1cccc2cccnc12 :: false (0)
COc1ccc(-c2c(C#Cc3ccccc3)c3ccccc3n2C)cc1 :: false (0)
O=C(NCCCn1ccnc1)c1ccccc1F :: false (0)

Qu. Check the results log: what was the call for CCOc1ccc(S(=O)(=O)NCCCn2ccnc2)cc1NC(C)=O ?
Ans. false (0)

Qu. Field: outcome | Entry: COc1ccc(-c2nc3ccccc3c(=O)n2CCc2ccc(O)cc2)cc1
Ans. false (0)

Qu. Fill in: this test's call for CCOc1ccc(-c2nonc2NC(=O)c2oc3ccc(CC)cc3c2C)cc1 is ___
Ans. false (0)

Values were extracted from PubChem BioAssay AID504333.
